target: EPHB2 (UniProt P29323); test: phosphorylation enrichment, bacterial display (enrichment ratio); higher = better substrate or ligand; peptides without Tyr show the background;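 further: 11-residue human phosphosite peptides and single-mutation variants displayed on the E. coli surface, counted by deep sequencing, each peptide's frequency after selection divided by its frequency in the unselected input library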;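 further: frequency after pTyr selection over input frequency; kinase dosed for 20-30% of maximal phosphorylation in three min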
Sequence (P29323 whole entry, looked up): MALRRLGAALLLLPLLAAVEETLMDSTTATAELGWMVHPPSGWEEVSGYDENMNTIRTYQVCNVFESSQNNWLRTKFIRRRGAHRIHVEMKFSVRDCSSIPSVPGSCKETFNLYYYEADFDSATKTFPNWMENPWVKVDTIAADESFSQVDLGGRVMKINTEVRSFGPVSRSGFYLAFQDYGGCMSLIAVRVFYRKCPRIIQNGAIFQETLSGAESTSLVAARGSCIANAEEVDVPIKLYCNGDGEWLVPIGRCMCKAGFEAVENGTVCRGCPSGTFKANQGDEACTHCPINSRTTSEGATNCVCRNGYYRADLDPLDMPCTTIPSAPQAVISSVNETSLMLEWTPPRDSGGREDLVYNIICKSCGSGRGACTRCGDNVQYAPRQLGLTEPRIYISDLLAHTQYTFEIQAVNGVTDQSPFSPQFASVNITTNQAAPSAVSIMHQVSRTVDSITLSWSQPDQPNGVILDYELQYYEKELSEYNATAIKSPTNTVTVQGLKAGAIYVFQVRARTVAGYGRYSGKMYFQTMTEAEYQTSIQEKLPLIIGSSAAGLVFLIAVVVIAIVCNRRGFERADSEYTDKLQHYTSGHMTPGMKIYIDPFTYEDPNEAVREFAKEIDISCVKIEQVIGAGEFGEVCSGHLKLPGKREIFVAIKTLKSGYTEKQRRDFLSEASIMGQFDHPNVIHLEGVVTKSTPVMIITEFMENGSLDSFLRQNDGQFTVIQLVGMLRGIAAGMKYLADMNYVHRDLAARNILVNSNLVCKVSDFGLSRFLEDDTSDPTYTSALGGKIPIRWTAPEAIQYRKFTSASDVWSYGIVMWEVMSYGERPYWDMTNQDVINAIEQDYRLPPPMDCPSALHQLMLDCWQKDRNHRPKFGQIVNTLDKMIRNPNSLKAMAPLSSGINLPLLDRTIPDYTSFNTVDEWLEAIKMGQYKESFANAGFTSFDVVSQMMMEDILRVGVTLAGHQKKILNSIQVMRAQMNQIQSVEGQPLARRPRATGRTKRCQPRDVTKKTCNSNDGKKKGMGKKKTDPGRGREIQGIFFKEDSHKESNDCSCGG
Metric name: phosphorylation enrichment
Lab note: jot the number down without any unit.

A selection of reference data follows.
CTTIHYNYMWN [TP53_Y234_C238W] ... 0.746
GRRNTYFASIA [ACADM_Y352_YF] ... 0.423
EKQVAYCPSGR [ROS1_Y2323_K2328R] ... 0.615
TLSGTYQYIIA [FOXL2_Y81_I80T] ... 2.21
PSPTKYSLSPS [RANBP2_Y785_R784K] ... 0.492
FLENFYDLKKD [MMP3_Y42_YF] ... 0.563
YTGDIYSNSNL [LZTR1_Y141] ... 1.53
IIQRAYRGHLL [SCN1A_Y1926_R1928G] ... 0.327

Lookup: Answer with the recorded phosphorylation enrichment of QLQVFYATRDQ [MIPEP_Y579_L582R] only.
Found: 0.805

Lookup: Answer with the recorded phosphorylation enrichment of AGQEDYDRLRP [CDC42_Y64] only.
Found: 0.654

Lookup: Answer with the recorded phosphorylation enrichment of KDKLPYPYDDP [GPX2_Y125] only.
Found: 0.487

Lookup: Answer with the recorded phosphorylation enrichment of EKMWTYMPSAE [GRIA4_Y695_R697P] only.
Found: 0.474

Lookup: Answer with the recorded phosphorylation enrichment of VIKDKYPKAHF [APTX_Y209_R213H_YF] only.
Found: 0.3
